biological target: CaV1.2 IQ domain TripleA mutant (CaV1.2 F1618A, F1619A, Y1622A) (human); experiment: ITC
value-type: Kd

                                     binder  value_type  experimental_result
0  CaBP1 C-terminal lobe (domain or fragment) IGVKELRDAFREFDTNGDGEISTSELREAMRKLLGHQVGHRDIEEIIRDVDLNGDGRVDFEEFVRMMSR          Kd               221 nM
